biological target: ASIC1a (acid-sensing ion channel 1a) (Rattus norvegicus, UniProt P55926); construct: rat ASIC1a isoform expressed in Xenopus laevis oocytes; assay: two-electrode voltage clamp in Xenopus oocytes; second peak of the pH […].5-evoked current at conditioning pH […]
Sequence (P55926 whole entry, canonical isoform): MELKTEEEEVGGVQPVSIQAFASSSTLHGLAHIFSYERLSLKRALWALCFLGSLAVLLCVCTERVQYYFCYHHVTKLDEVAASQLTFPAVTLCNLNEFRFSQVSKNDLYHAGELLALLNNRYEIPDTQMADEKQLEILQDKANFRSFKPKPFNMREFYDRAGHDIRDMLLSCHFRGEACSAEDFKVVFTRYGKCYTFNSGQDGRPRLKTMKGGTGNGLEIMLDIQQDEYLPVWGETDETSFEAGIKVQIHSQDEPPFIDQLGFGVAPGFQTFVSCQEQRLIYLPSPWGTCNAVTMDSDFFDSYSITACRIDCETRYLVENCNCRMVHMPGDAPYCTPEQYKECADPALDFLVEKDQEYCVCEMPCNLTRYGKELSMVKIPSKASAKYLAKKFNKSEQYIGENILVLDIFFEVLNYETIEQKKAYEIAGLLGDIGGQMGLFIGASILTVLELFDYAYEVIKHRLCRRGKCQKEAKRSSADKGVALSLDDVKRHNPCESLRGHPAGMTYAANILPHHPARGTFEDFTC
measurement_kind: pEC50
Would you please state pEC50, meaning minus log10 of the concentration in mol/L, as a bare number?

Requested field: pEC50. Item: COc1cc2c(cc1O)[C@@H](Cc1ccc(O)c(Oc3ccc(C[C@@H]4c5cc(OC)c(OC)cc5CCN4C)cc3)c1)N(C)CC2 [DAU, daurisoline]
4.64
